Attribution: patent US6465686B2

targetUnderTest: human endothelial constitutive NOS (hecNOS) (Homo sapiens, UniProt P29474)
procedureText: Citrulline assay for nitric oxide synthase, hecNOS
testConditions: recombinant enzyme, conversion of L-[2,3-3H]-arginine to citrulline, 30 μM L-arginine, calmodulin included
pIC50: −log10 of the molar value. Structures can show the parent of a compound that is named as a salt.
recordedEndpoint: pIC50

Please review the entries below; each comes with its answer.
>  <molecule>
CC(=N)NCC(F)=CCC[C@H](N)C(=O)O (mixture of isomers) [Example 2, dihydrochloride]

>  <targetUnderTest>
human endothelial constitutive NOS (hecNOS) (Homo sapiens, UniProt P29474)

>  <recordedResult>
3.71

$$$$
>  <molecule>
CC(=N)NC/C(F)=C\CC[C@@H](N)C(=O)O [Example 5, dihydrochloride, monohydrate]

>  <targetUnderTest>
human endothelial constitutive NOS (hecNOS) (Homo sapiens, UniProt P29474)

>  <recordedResult>
3.55

$$$$
>  <molecule>
CC(=N)NC/C(F)=C/CC[C@H](N)C(=O)O [Example 3, dihydrochloride]

>  <targetUnderTest>
human endothelial constitutive NOS (hecNOS) (Homo sapiens, UniProt P29474)

>  <recordedResult>
3.52

$$$$

[a] CC(=N)NC/C(F)=C\CC[C@H](N)C(=O)O [Example 1, dihydrochloride, monohydrate]
[b] CC(=N)NC/C(F)=C/CC[C@H](N)C(=O)O [Example 4, trihydrochloride, dihydrate]
Name the one with the greater pIC50 value, either a or b as given. Write the label of whichever entry you select.
a
(a: 4.17, b: 3.95)
